- Assay System: human TLR7 (Homo sapiens, UniProt Q9NYK1)
- Construct: host or cells: HEK-Blue cells
- Sequence (Q9NYK1 27-1049): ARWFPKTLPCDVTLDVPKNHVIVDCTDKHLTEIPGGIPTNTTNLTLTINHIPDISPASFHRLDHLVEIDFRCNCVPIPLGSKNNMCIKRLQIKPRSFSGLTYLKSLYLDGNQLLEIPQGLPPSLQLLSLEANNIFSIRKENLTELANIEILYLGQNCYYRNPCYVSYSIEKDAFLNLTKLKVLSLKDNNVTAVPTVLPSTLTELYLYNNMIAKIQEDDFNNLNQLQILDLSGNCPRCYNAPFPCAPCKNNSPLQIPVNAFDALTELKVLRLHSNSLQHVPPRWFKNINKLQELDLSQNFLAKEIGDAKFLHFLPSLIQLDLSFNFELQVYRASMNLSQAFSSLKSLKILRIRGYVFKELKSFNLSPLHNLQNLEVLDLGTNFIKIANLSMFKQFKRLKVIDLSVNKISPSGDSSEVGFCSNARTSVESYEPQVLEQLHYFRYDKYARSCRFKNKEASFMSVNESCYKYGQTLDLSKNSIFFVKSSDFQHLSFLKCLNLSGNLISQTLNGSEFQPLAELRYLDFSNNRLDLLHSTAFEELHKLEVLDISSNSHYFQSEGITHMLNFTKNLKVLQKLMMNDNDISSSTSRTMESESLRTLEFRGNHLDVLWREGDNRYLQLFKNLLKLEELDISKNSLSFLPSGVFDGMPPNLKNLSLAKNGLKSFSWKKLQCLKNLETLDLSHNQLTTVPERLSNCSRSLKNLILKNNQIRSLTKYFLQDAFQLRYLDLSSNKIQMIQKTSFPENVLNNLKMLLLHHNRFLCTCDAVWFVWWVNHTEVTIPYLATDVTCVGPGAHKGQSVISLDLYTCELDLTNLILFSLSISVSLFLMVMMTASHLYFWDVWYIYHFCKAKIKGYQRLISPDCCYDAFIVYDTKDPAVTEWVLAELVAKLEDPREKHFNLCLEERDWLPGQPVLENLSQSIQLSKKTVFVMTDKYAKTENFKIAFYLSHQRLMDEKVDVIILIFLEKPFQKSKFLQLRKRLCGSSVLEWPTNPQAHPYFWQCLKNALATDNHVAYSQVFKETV
- Protocol Description: TLR7 inhibition reporter assay (HEK-Blue cells, SEAP reporter, gardiquimod stimulation)
- Format: cell-based
- Applied Conditions: HEK-Blue cells overexpressing human TLR7, SEAP reporter, gardiquimod 7.5 μM; read-out: TLR7 IC50
pIC50: −log10 of the molar value.
Property Name: pIC50

INSERT INTO measurements (compound, limit_sign, recorded_value) VALUES
  ('COc1cc(-c2[nH]c3sc(C4CCC(NS(C)(=O)=O)CC4)nc3c2C(C)C)cn2ncnc12 (stereo not shown)', '=', 8.70),
  ('Cc1c(-c2[nH]c3sc(C4CCN(CC(C)C)CC4)nc3c2C(C)C)cn2ncnc2c1C', '=', 8.54),
  ('COc1cc(-c2[nH]c3sc(C4CCN(CC(=O)N(C)C)CC4)nc3c2C(C)C)cn2ncnc12', '=', 8.11),
  ('Cc1c(-c2[nH]c3sc(N4CCN(CC5CC5)C[C@@H]4C)nc3c2C(C)C)cn2ncnc2c1C', '=', 7.84),
  ('Cc1c(-c2[nH]c3sc(C4CCC(N5CC(O)C5)CC4)nc3c2C(C)C)cn2ncnc2c1C (single isomer, unassigned) [Example 224]', '=', 9.25),
  ('Cc1c(-c2[nH]c3sc(N4CCN(C5CCC5)C[C@@H]4C)nc3c2C(C)C)cn2ncnc2c1C', '=', 7.04),
  ('Cc1cc(-c2[nH]c3sc(N4CCN(C(C)C)C[C@H]4C)nc3c2C(C)C)cn2ncnc12', '<', 5.51);
